Entries and their measured TGI follow.
# System: OVCAR-3 ovarian
# test: NCI tumour cell line growth inhibition, 48 h

- compound: "c1ccc2cc3c(cc2c1)OP1(Oc2cccc4cccnc24)(O3)Oc2cc3ccccc3cc2O1"
  qualifier_operator: "="
  TGI / µM: 5.45
- compound: "COc1cc(C(=O)C2CC3(CCC2(O)c2cc(OC)c(OC)c(OC)c2)CC(=O)Nc2ccccc2C3=O)cc(OC)c1OC (stereo not drawn)"
  qualifier_operator: ">"
  TGI / µM: 100
- compound: "CC(C)N(C(=O)C12C3C4C1C1C2C3C41C(=O)N(C(C)C)C(C)C)C(C)C (stereo not drawn)"
  qualifier_operator: ">"
  TGI / µM: 50
- compound: "Nc1[nH]c(=O)[nH]c(=O)c1Cc1cccc(Cl)c1"
  qualifier_operator: ">"
  TGI / µM: 100
- compound: "CCN(Cc1ccc(F)cc1)c1ccc(CO)c(C(F)(F)F)c1"
  qualifier_operator: "="
  TGI / µM: 19.6
- compound: "C=C1C(=O)O[C@H]2[C@H]1CC/C(COC(=O)NCc1c[nH]c3ccc(F)cc13)=C\\CC[C@@]1(C)O[C@@H]21"
  qualifier_operator: "="
  TGI / µM: 3.07
- compound: "C/C(N)=N/OCc1nc(C)no1"
  qualifier_operator: ">"
  TGI / µM: 100
- compound: "Clc1ccc([I+]c2ccc(Cl)cc2Cl)c(Cl)c1"
  qualifier_operator: "="
  TGI / µM: 3.09
- compound: "C[C@@H](NC(=O)c1ccc(F)cc1)c1ccc2c(c1)CCN2C(=O)C1CCOCC1"
  qualifier_operator: ">"
  TGI / µM: 100
- compound: "O=[N+]([O-])/C=C/c1ccc(Cl)cc1Cl"
  qualifier_operator: "="
  TGI / µM: 53.6
- compound: "COc1ccc(-c2[nH]c3ccccc3c2/C=C(\\C#N)S(=O)(=O)c2ccccc2)cc1"
  qualifier_operator: "="
  TGI / µM: 0.673
- compound: "O=C1C=C(C2=C(C3=CC(=O)c4ccccc4C3=O)C(=O)c3ccccc3C2=O)C(=O)c2ccccc21"
  qualifier_operator: "="
  TGI / µM: 12.9
- compound: "CNC(=O)CCCNC(=O)CCCC(=O)OC"
  qualifier_operator: ">"
  TGI / µM: 100
- compound: "N#Cc1c(NC(=O)c2ccccc2F)sc2c1CCCC2"
  qualifier_operator: ">"
  TGI / µM: 25
- compound: "S=C(N/N=C/c1ccccn1)N1CCCCCC1"
  qualifier_operator: "="
  TGI / µM: 9.3
- compound: "C=C(C)CCC1CC=[N+]([O-])OC1C(C)(C)C (stereo not drawn)"
  qualifier_operator: ">"
  TGI / µM: 100
- compound: "COc1cc(C(=O)/C=C/c2c(C(F)(F)F)nc3ccccn23)cc(OC)c1OC"
  qualifier_operator: "="
  TGI / µM: 3.61
- compound: "O=C(c1cc(Cc2n[nH]c(=O)c3ccccc23)ccc1F)N1CCN(C(=O)C2CC2)CC1"
  qualifier_operator: ">"
  TGI / µM: 100
- compound: "c1cncc(CSc2ncnc3nc[nH]c23)c1"
  qualifier_operator: ">"
  TGI / µM: 100
- compound: "C=C1C=CC2(Br)OC3CC(C)(Cl)C(Br)CC13C2(C)C (stereo not drawn)"
  qualifier_operator: "="
  TGI / µM: 40.8
- compound: "CC(N)CC(=O)O (stereo not drawn)"
  qualifier_operator: ">"
  TGI / µM: 5000
- compound: "NC(CCCCNCc1ccccc1O)C(=O)O (stereo not drawn)"
  qualifier_operator: ">"
  TGI / µM: 100
- compound: "C/C(=N\\NC(=S)Nc1ccc([N+](=O)[O-])cc1)c1nc2ncccc2[nH]1"
  qualifier_operator: "="
  TGI / µM: 17.7
